metric.name: GI50

Tested on SNB-75 CNS, the item O=C1C(=O)c2ccccc2-c2ccccc21 showed GI50 equal to 1.51 µM

Tested on SNB-75 CNS, the item CCOC(=O)c1c(-c2ccccc2)[n+](=O)c2ccc(Cl)cc2n1[O-] showed GI50 equal to 3.18 µM

Tested on SNB-75 CNS, the item ClCc1ccc(-c2ccc(Cn3cnc4c(Cl)nc(Cl)nc43)cc2)cc1 showed GI50 equal to 2.63 µM

Tested on SNB-75 CNS, the item Cn1ncc2c(/N=C/c3cccs3)[nH]c(=S)nc21 showed GI50 equal to > 63.7 µM

Tested on SNB-75 CNS, the item C/C(CC(=O)NNc1ccc([N+](=O)[O-])cc1)=N\Nc1ccc([N+](=O)[O-])cc1 showed GI50 equal to 22.1 µM

Every entry's value here was drawn from PubChem BioAssay (NCI).
